I'd be grateful if you could share measured IC50 for these entries.
- assayed target: NRAS Q61R (Homo sapiens, UniProt P01111+P62937, Q61R)
- Sequence (P01111 whole entry Q61R): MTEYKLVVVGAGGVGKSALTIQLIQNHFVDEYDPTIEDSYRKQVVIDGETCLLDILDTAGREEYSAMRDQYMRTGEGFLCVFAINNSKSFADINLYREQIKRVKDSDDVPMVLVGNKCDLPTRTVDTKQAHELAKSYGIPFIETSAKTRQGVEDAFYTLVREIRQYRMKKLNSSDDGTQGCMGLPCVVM
- Sequence (P62937 whole entry): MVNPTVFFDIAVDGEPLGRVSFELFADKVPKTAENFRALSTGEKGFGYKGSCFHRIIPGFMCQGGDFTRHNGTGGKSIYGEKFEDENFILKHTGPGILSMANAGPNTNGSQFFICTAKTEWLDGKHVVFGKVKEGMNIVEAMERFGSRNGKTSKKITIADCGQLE
- method description: Disruption of BRAF RBD interaction with Ras (FRET / MOA assay, with Cyclophilin A)
- Format: biochemical
- run parameters: NRAS Q61R; read-out: NRAS Q61R FRET data IC50

Qu. Which IC50 reading was recorded for the molecule CCn1c(-c2cccnc2[C@H](C)OC)c2c3cc(ccc31)-c1cc(O)cc(c1)C[C@H](NC(=O)[C@H](C(C)C)N(C)C(=O)C1CN(C)C1)C(=O)N1CCC[C@H](N1)C(=O)OCC(C)(C)C2 (atropisomer, axis not shown) ?
Ans. 1000 to 10000 nM

Qu. Which IC50 reading was recorded for the molecule CCn1c(-c2cccnc2[C@H](C)OC)c2c3cc(ccc31)-c1csc(n1)C[C@H](NC(=O)[C@H](C(C)C)N1CCC3(CCN(S(C)(=O)=O)C3)C1=O)C(=O)N1CCC[C@H](N1)C(=O)OCC(C)(C)C2 (mixture of isomers) ?
Ans. 1000 to 10000 nM

Qu. Which IC50 reading was recorded for the molecule CCn1c(-c2cccnc2[C@H](C)OC)c2c3cc(ccc31)-c1csc(n1)C[C@H](NC(=O)[C@H](C(C)C)N(C)C(=O)N1CCOCC1)C(=O)N1CCC[C@H](N1)C(=O)OCC(C)(C)C2 (atropisomer, axis not shown) ?
Ans. 10 to 100 nM

Qu. Which IC50 reading was recorded for the molecule C=CC(=O)N1CC[C@H](C(=O)N(C)[C@H](C(=O)N[C@H]2Cc3cc(O)cc(c3)-c3ccc4c(c3)c(c(-c3cc(F)cnc3COC)n4CC)CC(C)(C)COC(=O)[C@@H]3CCCN(N3)C2=O)C(C)C)C1 ?
Ans. 100 to 1000 nM

Qu. Which IC50 reading was recorded for the molecule CCn1c(-c2cccnc2[C@H](C)OC)c2c3cc(ccc31)-c1csc(n1)C[C@H](NC(=O)[C@H](C(C)C)N(C)C(=O)N1C[C@@H]3CN(C)CC[C@@H]31)C(=O)N1CCC[C@H](N1)C(=O)OCC(C)(C)C2 ?
Ans. 1000 to 10000 nM

Qu. Which IC50 reading was recorded for the molecule CCn1c(-c2cccnc2[C@H](C)OC)c2c3cc(ccc31)-c1cccc(n1)C[C@H](NC(=O)[C@H](C(C)C)N(C)C(=O)N1CCC13CN(C(=O)C#CC(C)(C)N(C)C)C3)C(=O)N1CCCC(N1)C(=O)OCC(C)(C)C2 (some centres unmarked) ?
Ans. 1000 to 10000 nM

Qu. Which IC50 reading was recorded for the molecule CCn1c(-c2cccnc2[C@H](C)OC)c2c3cc(ccc31)-c1cc(O)cc(c1)C[C@H](NC(=O)[C@H](C(C)C)N(C)C(=O)C1Cc3cccnc3C1)C(=O)N1CCC[C@H](N1)C(=O)OCC(C)(C)C2 (some centres unmarked) ?
Ans. 100 to 1000 nM

Qu. Which IC50 reading was recorded for the molecule CCn1c(-c2cccnc2[C@H](C)OC)c2c3cc(ccc31)-c1csc(n1)C[C@H](NC(=O)[C@H](C(C)C)N(C)C(=O)N1CC3(CC(N(C)C)C3)C1)C(=O)N1CCC[C@H](N1)C(=O)OCC(C)(C)C2 (atropisomer, axis not shown) ?
Ans. 100 to 1000 nM
